Ref: PubChem BioAssay (NCI)

System: EKVX NSCLC
MEASUREMENT DESCRIPTION: NCI-60 one-dose screen, 48 h (100 = growth as untreated, 0 = no growth, -100 = all killed)
CONDITION CONTEXT: 10 µM unless noted
The panel holds about 83,000 compounds, 20% with a hit somewhere; the sample as a whole holds those more often.
Simple rule here: growth less than 80% is yes, otherwise no.

A selection of reference data follows.
{"COMPOUND": "Cc1ccccc1Cn1cnc2ccc(-c3cc(NC(=O)c4ccc(NC5CCN(C)CC5)cc4)n[nH]3)cc21", "ANSWER LABEL": "no"}
{"COMPOUND": "Cc1ccc(C(C(N)=O)C(C(N)=O)c2ccccc2)cc1 (stereo unspecified)", "ANSWER LABEL": "no"}
{"COMPOUND": "CCN(CC)c1ccc(/C=C/C(=O)c2ccc(Nc3nc(Nc4ccccc4)nc(Nc4ccccc4)n3)cc2)cc1", "ANSWER LABEL": "yes"}
{"COMPOUND": "Cc1ccc(/C=N/Nc2nc(Nc3ccccc3)nc(-n3nc(C)cc3C)n2)cc1", "ANSWER LABEL": "yes"}
{"COMPOUND": "COc1ccc(-c2nc(/C=C3\\SC(=NCc4ccccc4)NC3=O)c3ccccn23)cc1", "ANSWER LABEL": "yes"}

Determine whether this compound shows growth lower than 80% (ties excluded): COc1ccc(-c2nn(-c3ccccc3)cc2/C=C2/SC(=S)N(C)C2=O)cc1
yes

Please let me know if O=C1Nc2ccccc2[C@]12CC(c1ccccc1)=NN2 shows growth below 80%.
yes

Is it true that growth reported for O=C(CSc1nc2ccc([N+](=O)[O-])cc2[nH]1)Nc1cccc(C(F)(F)F)c1 is less than 80%?
yes

Criterion: growth strictly below 80%. Is it met by C#CCn1cnc2c(Nc3cccc(NC(=O)C=C)c3)ncnc21 ?
no

* * *

Tested on: SR leukemia
MEASUREMENT DESCRIPTION: NCI-60 one-dose screen, 48 h
CONDITION CONTEXT: 10 µM unless noted
About 83,000 compounds went through this panel and 20% of them were active in at least one assay; those are over-represented in the sample as a whole. Calls of active or inactive are those of the source. How the source made its calls: active means growth percent below 10; inactive means the rest.
Log the outcome using a class from active, inactive

Consider the following illustrative entries.
{"COMPOUND": "OCCCC1CCN(C(Cc2ccccc2)c2ccccc2)CC1 (stereo unspecified)", "TESTED ON": "SR leukemia", "ANSWER LABEL": "inactive"}
{"COMPOUND": "CCOC(=O)c1ccc2[nH]c(O)c(C(=Nc3ccc(N(C)C(=O)CN4CCN(C)CC4)cc3)c3ccccc3)c2c1", "TESTED ON": "SR leukemia", "ANSWER LABEL": "active"}
{"COMPOUND": "O=C(Nc1cccnc1Nc1ccc(F)cc1)c1cn(Cc2cccc(Oc3ccccc3)c2)nn1", "TESTED ON": "SR leukemia", "ANSWER LABEL": "inactive"}
{"COMPOUND": "CO[C@H]1/C=C(/C)CCC[C@H](C)[C@H](O)[C@@H](C)C(=O)C(C)(C)[C@@H](O)CC(=O)O[C@@H]1/C(C)=C/c1csc(C)n1", "TESTED ON": "SR leukemia", "ANSWER LABEL": "inactive"}
{"COMPOUND": "COc1ccc(/C=C2\\COc3ccc(O)c(O)c3C2=O)cc1", "TESTED ON": "SR leukemia", "ANSWER LABEL": "inactive"}

Test call for this compound, please: c1ccc(C2=NN[C@H](c3cn(-c4ccccc4)nc3-c3ccccc3)C2)cc1
inactive

Can you look up the reported call for C#Cc1ccc(NC(=O)c2ccc(/C=C/C(=O)c3nccn3C)cc2)cc1 for me?
active

Record request — test call for CN(C)c1ccc(/C=C/C(=O)c2ccc(-n3cc(CN4CCN(c5cc6c(cc5F)c(=O)c(C(=O)O)cn6C5CC5)CC4)nn3)cc2)cc1
active

Outcome logged for CCN1CC(=O)N(/N=C2\C(=O)Nc3ccccc32)C1=S in this assay:
inactive

How did this test come out for CSc1nc2sc3c(c2c(=O)n1-c1ccc([N+](=O)[O-])cc1)CCCCC3 ?
inactive

What is the recorded call for this compound in the test? O=C1N(Cc2ccccc2Cl)c2ccccc2C12NN=C(c1cccc(Cl)c1)S2 (stereo unspecified)
active

Short answer needed: outcome of this test for Cc1ccc(Sc2nnc(/N=C3\C(=O)Nc4ccccc43)s2)cc1 ?
inactive

Any idea what this test logged for COc1ccc(-c2cn(-c3cc(OC)c(OC)c(OC)c3)c(=O)n2C(C)=O)cc1 ?
inactive

Recorded call for CN1CCN(c2ccc(NC(=O)c3nc4ccc5[nH]ncc5c4c4c3CCCC4)cc2C(F)(F)F)CC1 ?
inactive

Tell me the recorded outcome of this test for COc1ccc2[nH]cc(C(c3cc(F)cc(F)c3)c3c[nH]c4ccc(OC)cc34)c2c1 .
inactive

Could you please tell me the result logged for Cc1nc2sc(C(=O)Nc3cccc(Cl)c3C)c(N)c2cc1C(=O)c1ccccc1 in this assay?
inactive

Entry CCc1ccc(Oc2cn[nH]c2-c2ccc(OCCc3ccc(F)cc3)cc2O)cc1 : call = ?
inactive

For Cc1cc(N)c2cc(NC(=O)/C=C\c3ccccc3Cl)ccc2n1 , what call appears in the results of this test?
active

Test call for this compound, please: N#CCSc1nnc2n(Cc3ccccc3)c(=O)c3c4c(sc3n12)CCCC4
inactive

Please let me know the test result on file for CCNc1cc(-c2cccc(OC(F)(F)F)c2)nc2ccc(N3CCCC3)cc12 .
active

What outcome does the record of this test show for COc1ccc(-c2nc3c(c(-c4ccccc4)nn3-c3ccccc3)c(-c3ccc(N4CCN(C)CC4)cc3)c2C#N)cc1 ?
inactive

Status in this test for O=[N+]([O-])c1ccc(S(=O)(=O)N2CCN(C3=NS(=O)(=O)c4ccccc4N3c3ccccc3)CC2)cc1 ?
inactive

Please let me know the test result on file for COC(=O)[C@H]1CCCN1C[C@@H](O)CN1C(=O)/C(=C\c2cc(OC)c(OC)c(OC)c2)c2ccccc21 .
inactive

# lookup: test call for CN(CCn1sc(=O)n(Cc2ccccc2)c1=O)Cc1ccc2c(Cl)cc(Cl)c(O)c2n1
inactive

How did this test come out for Cc1ccc(-c2nn(-c3ccccc3)cc2C=C2C(=O)ON=C2C(C)C)cc1 ?
active

Can you look up the reported call for O=C(/C=C/c1ccccc1)c1cccc(OCCCOc2cccc(C(=O)/C=C/c3ccccc3)c2)c1 for me?
active
